Tested On: human Y2 receptor (Homo sapiens)
Construct: expressed in transfected cells; membrane fraction
Sequence (P49146 1-381): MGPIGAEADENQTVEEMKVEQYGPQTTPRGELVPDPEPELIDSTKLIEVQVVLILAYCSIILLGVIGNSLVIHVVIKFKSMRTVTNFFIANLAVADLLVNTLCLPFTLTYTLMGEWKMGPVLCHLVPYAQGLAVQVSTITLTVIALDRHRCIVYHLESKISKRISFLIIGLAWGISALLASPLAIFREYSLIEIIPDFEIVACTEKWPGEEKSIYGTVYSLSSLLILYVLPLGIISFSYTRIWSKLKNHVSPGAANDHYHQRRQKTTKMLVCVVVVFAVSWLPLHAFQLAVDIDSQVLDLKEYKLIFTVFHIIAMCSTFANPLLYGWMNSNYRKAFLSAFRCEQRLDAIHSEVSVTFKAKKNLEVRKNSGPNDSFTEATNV
Experiment Summary: Human Y2 Receptor G Protein Binding Assay (GBA), [35S]GTPγS
Assay type: biochemical
Test Settings: EC50 of test compound/EC50 of PYY(3-36) (PYY3-36 taken as 1), hY2R/CHO membrane fraction
Non-standard residues stand in square brackets, D forms with d. *: point of attachment. Cha = N[C@@H](CC1CCCCC1)C(=O)O; Dap = NC[C@H](N)C(=O)O; Aib = CC(C)(N)C(=O)O; Bz = O=C(c1ccccc1)*
Value Type: GBA EC50 Ratio

| Substance | Tested On | Value Type | Obs Value |
| --- | --- | --- | --- |
| Benzoyl-[His27, Cha28,36, Aib31]-PYY(25-36) (Bz-RHH[Cha]NL[Aib]TRQR[Cha]-NH2; SMILES CC(C)C[C@H](NC(=O)[C@H](CC(N)=O)NC(=O)[C@H](CC1CCCCC1)NC(=O)[C@H](Cc1c[nH]cn1)NC(=O)[C@H](Cc1c[nH]cn1)NC(=O)[C@H](CCCNC(=N)N)NC(=O)c1ccccc1)C(=O)NC(C)(C)C(=O)N[C@H](C(=O)N[C@@H](CCCNC(=N)N)C(=O)N[C@@H](CCC(N)=O)C(=O)N[C@@H](CCCNC(=N)N)C(=O)N[C@@H](CC1CCCCC1)C(N)=O)[C@@H](C)O) [compound No. 104] | human Y2 receptor (Homo sapiens) | GBA EC50 Ratio | 4.3 |
| Benzoyl-[Cha27,36, Ile28, Dap31]-PYY(25-36) (Bz-RH[Cha]INL[Dap]TRQR[Cha]-NH2; SMILES CC[C@H](C)[C@H](NC(=O)[C@H](CC1CCCCC1)NC(=O)[C@H](Cc1c[nH]cn1)NC(=O)[C@H](CCCNC(=N)N)NC(=O)c1ccccc1)C(=O)N[C@@H](CC(N)=O)C(=O)N[C@@H](CC(C)C)C(=O)N[C@@H](CN)C(=O)N[C@H](C(=O)N[C@@H](CCCNC(=N)N)C(=O)N[C@@H](CCC(N)=O)C(=O)N[C@@H](CCCNC(=N)N)C(=O)N[C@@H](CC1CCCCC1)C(N)=O)[C@@H](C)O) [compound No. 69] | human Y2 receptor (Homo sapiens) | GBA EC50 Ratio | 28 |

These measurements were taken from patent US9260500B2.
